Molecular target: human CD28 (human, UniProt P10747 19-220)
Test: cell-based or functional assay
The label criterion met is reserved for Luciferase assay (EC50) strictly under 800 nM; criterion not met covers values equal to or above it.

Problem: In plain terms, does 1h-29 (other) VH: EVQLLESGGGLVQPGGSLRLSCAASGFTFEDYDMNWVRQAPGKGLEWVSHIDRGGTLTYYADSVKGRFTISRDNSKNTLYLQMNSLRAEDTAVYYCAKSTLMGFDYWGQGTLVTVSS come in under 800 nM for Luciferase assay (EC50)?
Result: criterion not met

Problem: In plain terms, does 1h-239-856 (other) VL: DIQMTQSPSSLSASVGDRVTITCRASQSIYPFLEWYQQKPGKAPKLLIYFTSRLRHGVPSRFSGSGSGTDFTLTISSLQPEDFATYYCLQNVTNPATFSQGTKVEIKR come in under 800 nM for Luciferase assay (EC50)?
Result: criterion met

Problem: In plain terms, does 1h-108-5 (other) VL: DIQITQSPSSLSASVGDRVTITCRASQYIGTALNWYQQKPGKAPELLIYRGSHLQSGVPSRFSGSGSGTDFTLTISSLQPEDFVTYYCQQIALTPYTFGQGTKVEIKR come in under 800 nM for Luciferase assay (EC50)?
Result: criterion not met

Problem: In plain terms, does 1h-239-849 (other) VL: DIQMTQSPSSLSASVGDRVTITCRASQSIYPFLEWYQQKPGKAPKLLIYFTSKLTRGVPSRFSGSGSGADFTLTISNLQPEDFATYYCLQNVTNPATFSQGTKVEIKR come in under 800 nM for Luciferase assay (EC50)?
Result: criterion met

Problem: In plain terms, does 1h-99-222 (other) VH: EVQLLESGGGLVQPGGSLRLSCAASGFTFQRSNMSWVRQAPGKGLEWVSWIEDTGTQTFYADSVKGRFTISRDNSKNTLYLQMNSLRAEDTAVYYCAKSPFGPLYGFDYRGQGTLVTVSS come in under 800 nM for Luciferase assay (EC50)?
Result: criterion met

Problem: In plain terms, does 1h-239-851 (other) VL: DIQMTQSPSSLSASVGDRVTITCRASRNIYPFLEWYQQKPGKAPKLLIYFTSRLQSGVPSRFSGSGSGTDFTLTISSLQPEDFATYYCLQNVTNPATFSQGTKVEIKR come in under 800 nM for Luciferase assay (EC50)?
Result: criterion met

Problem: In plain terms, does 1h-83 (other) VL: DIQMTQSPSSLSASVGDRVTITCRASQSIGHSLVWYQQKPGKAPKLLIYWASLLQSGVSSRFSGSGSGTDFTLTISSLQPEDFATYYCQQSRAAPFTFGQGTKVEIKR come in under 800 nM for Luciferase assay (EC50)?
Result: criterion not met
